Measured viability, listed per entry for reference.
# Test Method Notes: Lymphocyte Viability Assay (LCV)
# Assay type: cell-based, murine
# Cond: mouse, splenocytes, 50 μg/ml; read-out: % LCV (percentage of positive control)
Output spec: scalar in %, unitless text.

Use the examples below as a reference point.
Fill in viability for record "CCCCCCCCCCCCCCCCO"
0

Fill in viability for record C#CC(O)CCCCCCC (stereo not drawn)
61

Fill in viability for record C#CC(O)CCCCCCCCCCCCCCC (stereo not drawn)
10

New cases:
Fill in viability for record "C#CC(=O)CCCCCCCCCCCCCCCC"
34

Fill in viability for record C#CC(O)CCCCCCCCCCCCCCCC (stereo not drawn)
22

Fill in viability for record C#CC(O)CCC=CCCCCC (stereo not drawn)
51

----------
Measured viability, listed per entry for reference.
# Test Method Notes: Lymphocyte Viability Assay (LCV)
# Type: cell-based, murine
# Cond: mouse, splenocytes, 50 μg/ml; read-out: % LCV (percentage of positive control)
Output spec: scalar in %, unitless text.

Use the examples below as a reference point.
Fill in viability for record CCCCCCCCCCCCCCC/C=C/C(O)C#N (centres unmarked)
37

Fill in viability for record C#CC(O)CCCC (centres unmarked)
61

Fill in viability for record C#CC(/C=C/CCCCCCCCCCCCCCC)OC(C)=O (centres unmarked)
11

Fill in viability for record C=CC(O)CCCCCCCCCCCCCCCC (centres unmarked)
5

Fill in viability for record "CCCCCCCCCCCCCCC/C=C/C=O"
5

Fill in viability for record CC#CC(O)/C=C/CCCCCCCCCCCCCCC (centres unmarked)
60

Fill in viability for record C#CC(O)CCCCCCCCCCCCCCCCC (centres unmarked)
2

Fill in viability for record C#CC(O)/C=C/CCCCCCCCCCCCCCC (centres unmarked)
11

Fill in viability for record "CCCCCCCCCCCCCCCC=O"
132

Fill in viability for record C#CC(C)(O)/C=C/CCCCCCCCCCCCCCC (centres unmarked)
5

New cases:
Fill in viability for record C#CC(O)C=CC=CCCCC (centres unmarked)
29

----------
# Test system: lymphoid cells (murine BALB/c splenocytes)
# Test Method Notes: Lymphocyte Viability Assay (LCV)
# Assay type: cell-based
# Cond: 12.5 μg/ml
Measured % LCV (percentage of positive control), listed per entry for reference.
Output spec: scalar in %, unitless text.

Use the examples below as a reference point.
Fill in % LCV (percentage of positive control) for record CCCCCC=CC(O)C#CCCCCCCCC (stereo not shown)
28

Fill in % LCV (percentage of positive control) for record C#CC(O)C=CCCCCCCCCCCCCCCCCCCC (stereo not shown)
30

Fill in % LCV (percentage of positive control) for record C#CC(O)C=CCCCCCCCCC (stereo not shown)
5

API: the following record is the query input.
Fill in % LCV (percentage of positive control) for record C#CC(O)C=CCCCCC (stereo not shown)
65

----------
# System: lymphoid cells (murine BALB/c splenocytes)
# Test Method Notes: Lymphocyte Viability Assay (LCV)
# Type: cell-based
# Cond: 3.1 μg/ml
Recorded Endpoint: % LCV (percentage of positive control)
Please answer in the form of a number followed by its unit of measurement.

Fill in % LCV (percentage of positive control) for record CCCCCC=CC(O)C#CCCCCCCCC (stereo not shown) [CH3 (CH2)4 CH=CH--CHOH--C≡C--(CH2)7 CH3]
86%

Fill in % LCV (percentage of positive control) for record C#CC(O)C=CCCCCCCCCC (stereo not shown) [CH3 (CH2)8 CH=CH--CHOH--C≡CH]
26%

Fill in % LCV (percentage of positive control) for record C#CC(O)C=CCCCCC (stereo not shown) [CH3 (CH2)4 CH= CH--CHOH--C≡CH]
89%

API: the following record is the query input.
Fill in % LCV (percentage of positive control) for record C#CC(O)C=CCCCCCCCCCCCCCCCCCCC (stereo not shown) [CH3 (CH2)18 CH=CH--CHOH--C≡CH]
28%
